Documented koff across a set of binders
molecular target: T1, human CD137-His6 (Sino Biological #10041-H08H) (human, UniProt Q07011 24-186); assay: SPR Biacore, IgG
T1 construct: Bought; also called human CD137 protein; not shown: His6 tag
Output spec: scalar in s⁻¹, unitless text.

AG10082 (antibody, human IgG4 S228P, kappa, V domains shown, also called IgG of Fab 5300) VH: EVQLVESGGGLVQPGGSLRLSCAASGYTFSNYWIHWVRQAPGKGLEWVSYISGDGDTTYYADSVKGRFTISRDNSKNTLYLQLNSLRAEDTAVYYCAREGSTTVAGDWFAYWGQGTLVTVSS VL: DIQLTQSPSSLSASVGDRVTITCRASQGIGSFLGWYQQKPGKAPKLLIYDASSLESGVPSRFSGSGSGTDFTLTISSLQPEDFATYYCQQYYSLVTFGQGTKVEIKR
0.0072

Could you share which koff value was measured for AG10129 (antibody, human IgG4 S228P, kappa, V domains shown, also called IgG of Fab 5353) VH: EVQLVESGGGLVQPGGSLRLSCAASGFTFSSYWIHWVRQAPGKGLEWVSVISGDGDTTYYADSVKGRFTISRDNSKNTLYLQLNSLRAEDTAVYYCARSRGLVLDAFDYWGQGTLVTVSS VL: DIQLTQSPSSLSASVGDRVTITCRASQSVSGRFLAWYQQKPGKAPKLLIYDASSLESGVPSRFSGSGSGTDFTLTISSLQPEDFATYYCQQYDYWPPYTFGQGTKVEIKR ?
0.006

# get_value(readout='koff', item= AG10085 (antibody, human IgG4 S228P, kappa, V domains shown, also called IgG of Fab 5367) VH: EVQLVESGGGLVQPGGSLRLSCAASGFSLSTSGVGVGWIRQAPGKGLEWVSGISGAGDSTYYADSVKGRFTISRDNSKNTLYLQLNSLRAEDTAVYYCAREGSDTVLGDWFAYWGQGTLVTVSS VL: DIQLTQSPSSLSASVGDRVTITCRASQDIRSYLAWYQQKPGKAPKLLIYDASNRATGIPSRFSGSGSGTDFTLTISSLQPEDFATYYCQQGYSIWTFGQGTKVEIKR )
0.0079

For AG10058 (antibody, human IgG4 S228P, kappa, V domains shown) VH: EVQLVESGGGLVQPGGSLRLSCAASGFSLSTSGVGVGWIRQAPGKGLEWLALIDWDDDKYYSPSLKSRLTISRDNSKNTLYLQLNSLRAEDTAVYYCARGGSDTVLGDWFAYWGQGTLVTVSS VL: DIQLTQSPSSLSASVGDRVTITCRASQSVSPYLAWYQQKPGKAPKLLIYDASSLESGVPSRFSGSGSGTDFTLTISSLQPEDFATYYCQQGYSLWTFGQGTKVEIKR , what is its reported koff?
0.0024

Tell me the measured koff of AG10086 (antibody, human IgG4 S228P, kappa, V domains shown, also called IgG of Fab 5409) VH: EVQLVESGGGLVQPGGSLRLSCAASGYSISSGHHWAWIRQAPGKGLEWVSVISGSGSSTYYADSVKGRFTISRDNSKNTLYLQLNSLRAEDTAVYYCAREGSDTVLGDWFAYWGQGTLVTVSS VL: DIQLTQSPSSLSASVGDRVTITCRASQGISSYLAWYQQKPGKAPKLLIYDASNLETGVPSRFSGSGSGTDFTLTISSLQPEDFATYYCQQGYSTWTFGQGTKVEIKR , please.
0.0045
